Test system: Escherichia coli ATCC 25922
Known MIC of a selection of compounds
The response must be a number in µM with no trailing unit.

NCCCC[C@H](NC(=O)[C@H](Cc1c[nH]c2ccccc12)NC(=O)[C@H](CCC(N)=O)NC(=O)[C@H](Cc1c[nH]c2ccccc12)NC(=O)[C@H](CCCCN)NC(=O)[C@H](Cc1c[nH]c2ccccc12)NC(=O)[C@H](CCC(N)=O)NC(=O)[C@H](Cc1c[nH]c2ccccc12)NC(=O)[C@@H](N)CCCCN)C(=O)O [KWQWKWQWK] : 36

// compound CC[C@H](C)[C@H](NC(=O)CN)C(=O)N[C@@H](CC(C)C)C(=O)N[C@@H](CC(=O)O)C(=O)N[C@H](C(=O)N[C@@H](CCCCN)C(=O)N[C@@H](CC(N)=O)C(=O)N[C@@H](CCCCN)C(=O)N[C@H](C(=O)N[C@@H](CO)C(=O)N[C@@H](CC(N)=O)C(=O)N[C@@H](CC(C)C)C(=O)N[C@@H](Cc1ccccc1)C(N)=O)C(C)C)[C@@H](C)CC [GILDIKNKVSNLF] , assay Escherichia coli ATCC 25922, MIC value: 62.5

====

Tested on: Micrococcus luteus ATCC 4698
value.type: MIC

MIC value, target or system Micrococcus luteus ATCC 4698, for CC[C@H](C)[C@H](NC(=O)[C@@H](NC(=O)[C@@H](N)CO)C(C)C)C(=O)NCC(=O)N[C@H]1CSSC[C@@H](C(=O)N[C@@H](Cc2ccccc2)C(=O)N[C@H](C(=O)N[C@@H](CCCCN)C(N)=O)C(C)C)NC(=O)[C@@H]2CCCN2C(=O)[C@H](CCCN=C(N)N)NC(=O)[C@@H]2CCCN2C(=O)[C@@H]2CCCN2C(=O)[C@H]([C@@H](C)CC)NC(=O)[C@H](CO)NC(=O)[C@H](CCCCN)NC(=O)[C@H]([C@@H](C)O)NC(=O)[C@H](Cc2c[nH]c3ccccc23)NC1=O : ≥ 74.3 µM

====

Test system: Mycobacterium tuberculosis H37Rv
Test: ≥ marks a high value that may be exact or a test limit, other limits are often not marked, values filed in µg/mL are converted to µM
value.type: MIC

# MIC measured on Mycobacterium tuberculosis H37Rv for item CC[C@H](C)[C@H](NC(=O)[C@H](CC(C)C)NC(=O)[C@@H](N)CCCN=C(N)N)C(=O)N[C@@H](CCCN=C(N)N)C(=O)N[C@H](C(=O)N[C@@H](CCC(=O)O)C(=O)N[C@@H](CCCN=C(N)N)C(=O)N[C@@H](CC(=O)O)C(=O)N[C@@H](CO)C(=O)N[C@H](C(=O)N[C@@H](CCC(=O)O)C(=O)N[C@@H](C)C(=O)N[C@@H](CC(C)C)C(=O)N[C@@H](CCSC)C(=O)N[C@@H](CCCN=C(N)N)C(=O)N1CCC[C@H]1C(=O)N[C@H](C(=O)NCC(=O)N[C@@H](CCCCN)C(=O)O)[C@@H](C)CC)C(C)C)C(C)C [RLIRVERDSVEALMRPIGK] = ≥ 89.3 µM

====

Measurement record for Acinetobacter baumannii; quantity recorded: log10 of MIC.
Values reflect log10 of reported MIC (µM).

CC(C)[C@H](NC(=O)[C@H](CCCN=C(N)N)NC(=O)[C@H](Cc1c[nH]c2ccccc12)NC(=O)[C@H](CCCN=C(N)N)NC(=O)[C@H](Cc1c[nH]c2ccccc12)NC(=O)[C@H](Cc1c[nH]c2ccccc12)NC(=O)[C@H](Cc1c[nH]c2ccccc12)NC(=O)[C@H](CCCN=C(N)N)NC(=O)[C@H](Cc1c[nH]c2ccccc12)NC(=O)[C@@H](N)CCCN=C(N)N)C(N)=O : 0.30
CC[C@H](C)[C@H](NC(=O)[C@H](Cc1c[nH]c2ccccc12)NC(=O)[C@H](CCCCN)NC(=O)[C@@H](NC(=O)[C@H](CC(C)C)NC(=O)[C@H](CO)NC(=O)[C@H](CCCCN)NC(=O)CN)C(C)C)C(=O)N[C@H](C(=O)N[C@@H](CCCCN)C(=O)N[C@@H](CO)C(=O)N[C@H](C(=O)N[C@@H](CCCN=C(N)N)C(=O)N[C@@H](CCCCN)C(=O)N[C@@H](C)C(N)=O)C(C)C)C(C)C : 1.40
NC(=O)[C@H](Cc1c[nH]c2ccccc12)NC(=O)[C@H](CCCN=C(N)N)NC(=O)[C@H](Cc1c[nH]c2ccccc12)NC(=O)[C@H](CCCN=C(N)N)NC(=O)[C@H](Cc1c[nH]c2ccccc12)NC(=O)[C@H](Cc1c[nH]c2ccccc12)NC(=O)[C@H](Cc1c[nH]c2ccccc12)NC(=O)[C@H](CCCN=C(N)N)NC(=O)[C@H](Cc1c[nH]c2ccccc12)NC(=O)[C@@H](N)CCCN=C(N)N : 0.30
CC[C@H](C)[C@H](NC(=O)[C@H](CCCN=C(N)N)NC(=O)[C@H](Cc1c[nH]c2ccccc12)NC(=O)[C@H](CCCN=C(N)N)NC(=O)[C@H](Cc1c[nH]c2ccccc12)NC(=O)[C@H](Cc1c[nH]c2ccccc12)NC(=O)[C@H](Cc1c[nH]c2ccccc12)NC(=O)[C@H](CCCN=C(N)N)NC(=O)[C@H](Cc1c[nH]c2ccccc12)NC(=O)[C@H](CCCN=C(N)N)NC(=O)CN)C(N)=O : 0.30

Value (log10 of MIC, Acinetobacter baumannii) for record CC[C@H](C)[C@@H]1NC(=O)CNC(=O)[C@H](CCCN=C(N)N)NC(=O)[C@H](Cc2ccc(O)cc2)NC(=O)[C@H](CO)NC(=O)[C@H](C(C)C)NC(=O)[C@H](CCCN=C(N)N)NC(=O)[C@H](Cc2ccccc2)NC(=O)[C@@H](NC(=O)[C@H](Cc2c[nH]c3ccccc23)NC(=O)[C@@H](N)CCCCN)CSSC[C@@H](C(=O)N[C@@H](CCCN=C(N)N)C(=O)O)NC(=O)[C@H](CCCN=C(N)N)NC(=O)[C@H](CCCN=C(N)N)NC(=O)[C@H](Cc2ccc(O)cc2)NC(=O)[C@H](C)NC1=O = -0.35

The recorded log10 of MIC with Acinetobacter baumannii for CC[C@H](C)[C@@H]1NC(=O)CNC(=O)[C@H](CCCN=C(N)N)NC(=O)[C@H](Cc2ccc(O)cc2)NC(=O)[C@@H]2CSSC[C@H](NC1=O)C(=O)N[C@@H](Cc1ccc(O)cc1)C(=O)N[C@@H](CCCN=C(N)N)C(=O)N[C@@H](CCCN=C(N)N)C(=O)N[C@H](C(=O)N[C@@H](C)C(=O)O)CSSC[C@H](NC(=O)[C@H](Cc1c[nH]c3ccccc13)NC(=O)[C@@H](N)CCCCN)C(=O)N[C@@H](Cc1ccccc1)C(=O)N[C@@H](CCCN=C(N)N)C(=O)N[C@@H](C(C)C)C(=O)N2 was -1.24

Observed log10 of MIC, Acinetobacter baumannii, CC(C)C[C@H](NC(=O)[C@H](CC(C)C)NC(=O)[C@H](CCCCN)NC(=O)[C@H](CCCCN)NC(=O)[C@H](CC(C)C)NC(=O)[C@H](CC(C)C)NC(=O)[C@H](CCCCN)NC(=O)[C@H](CC(C)C)NC(=O)[C@@H](N)Cc1ccccc1)C(N)=O : 1.00

Measured log10 of MIC (Acinetobacter baumannii), entry CC[C@H](C)[C@H](NC(=O)[C@H](CC(C)C)NC(=O)[C@H](CCC(N)=O)NC(=O)[C@@H](NC(=O)[C@H](CC(C)C)NC(=O)[C@H](CCCN=C(N)N)NC(=O)[C@H](CCCN=C(N)N)NC(=O)[C@@H](NC(=O)[C@H](C)NC(=O)[C@H](CCCCN)NC(=O)[C@H](CCCN=C(N)N)NC(=O)[C@@H](N)CC(C)C)[C@@H](C)O)C(C)C)C(=O)N[C@H](C(=O)N[C@@H](CO)C(=O)NCC(=O)O)C(C)C : 1.40

====

System: Bacillus subtilis 168
value.type: MIC (µM)
Return type: number; implicit unit µM.

Examples from the recorded data:
CC[C@H](C)[C@H](NC(=O)[C@H](CC(C)C)NC(=O)[C@H](Cc1cnc[nH]1)NC(=O)CNC(=O)[C@H](CC(C)C)NC(=O)[C@@H](NC(=O)[C@H](CCCCN)NC(=O)[C@H](CO)NC(=O)[C@H](Cc1c[nH]c2ccccc12)NC(=O)[C@H](CCSC)NC(=O)CN)[C@@H](C)CC)C(=O)N[C@@H](CCCCN)C(N)=O : 1.3
CSCC[C@H](NC(=O)[C@H](C)NC(=O)[C@H](CC(C)C)NC(=O)[C@H](CCCCN)NC(=O)[C@H](CC(C)C)NC(=O)[C@H](CC(C)C)NC(=O)[C@H](CCCCN)NC(=O)[C@H](CCCCN)NC(=O)[C@@H](NC(=O)[C@@H](N)CC(C)C)C(C)C)C(=O)NCC(=O)N[C@@H](Cc1ccccc1)C(=O)NCC(N)=O : 3.7
CSCC[C@H](NC(=O)CN)C(=O)N[C@@H](Cc1c[nH]c2ccccc12)C(=O)N[C@@H](CO)C(=O)N[C@@H](CCCCN)C(=O)N[C@@H](CC(C)C)C(=O)N[C@@H](CC(C)C)C(=O)NCC(=O)N[C@@H](Cc1cnc[nH]1)C(=O)N[C@@H](CC(C)C)C(=O)N[C@@H](CC(C)C)C(=O)N[C@@H](CCCN=C(N)N)C(N)=O : 1.3
CC[C@H](C)[C@H](NC(=O)[C@H](Cc1cnc[nH]1)NC(=O)[C@H](CCCCN)NC(=O)[C@H](Cc1c[nH]c2ccccc12)NC(=O)[C@H](CC(C)C)NC(=O)[C@H](CO)NC(=O)[C@H](CCSC)NC(=O)[C@H](Cc1c[nH]c2ccccc12)NC(=O)[C@H](CCCCN)NC(=O)CN)C(=O)N[C@@H](CC(C)C)C(=O)N[C@@H](CCCCN)C(N)=O : 1.4
CC[C@H](C)[C@H](NC(=O)[C@H](CC(C)C)NC(=O)[C@H](Cc1cnc[nH]1)NC(=O)CNC(=O)[C@H](CC(C)C)NC(=O)[C@@H](NC(=O)[C@H](CCCCN)NC(=O)[C@H](CO)NC(=O)[C@H](Cc1c[nH]c2ccccc12)NC(=O)[C@H](CCSC)NC(=O)CN)[C@@H](C)CC)C(=O)N[C@@H](CCCN=C(N)N)C(N)=O : 0.8

The measured MIC that CC(C)C[C@H](NC(=O)[C@H](CC(C)C)NC(=O)[C@H](CCCCN)NC(=O)[C@@H]1CCCN1C(=O)[C@H](CC(C)C)NC(=O)[C@H](CC(C)C)NC(=O)[C@H](CCCCN)NC(=O)[C@H](CC(C)C)NC(=O)[C@H](CC(C)C)NC(=O)[C@H](CO)NC(=O)CNC(=O)[C@H](CC(C)C)NC(=O)[C@@H](N)CC(C)C)C(N)=O showed for Bacillus subtilis 168 is 3.12
